The measurements presented in this section are drawn from PubChem BioAssay (NCI).

Tested on: SK-OV-3 ovarian
Assay Method Text: NCI tumour cell line growth inhibition, 48 h
In this section we review reported TGI values for a set of compounds.

Would you mind telling me what TGI value was observed for O=C1c2ccccc2-c2c1c1ccccc1c(=O)n2CCN1CCOCC1 ?
> 100 µM

Next up: C#CCSC(C=C=C)P(=O)(OC(C)C)OC(C)C (centres undefined)
> 100 µM

Next up: CCc1cccc(C)c1NC(=O)C(=O)Cc1nc2ccccc2s1
> 100 µM

Next up: O=C1CC(S(=O)(=O)O)C=C1Nc1cccc(Cl)c1 (centres undefined)
> 100 µM

Next up: Oc1c([Si](c2ccccc2)(c2ccccc2)c2ccccc2)cc2ccccc2c1-c1c(O)c([Si](c2ccccc2)(c2ccccc2)c2ccccc2)cc2ccccc12
> 100 µM

Next up: CC1(C)CC(C)(C)C1=NNC(N)=O
> 100 µM

Next up: CCSCCCN(CCCSCC)CCCSCC
> 100 µM

Next up: C1CN(SSN2CCOCC2)CCO1
> 100 µM

Next up: CCOC(=O)c1nc2ccc(C(F)(F)F)cc2nc1Oc1cc(OC)cc(OC)c1
> 100 µM

Next up: CC1(C)[C@H]2CC[C@]1(C)[C@H](OC(=O)NNC(=O)O[C@@H]1C[C@@H]3CC[C@@]1(C)C3(C)C)C2
28.6 µM

Next up: C[C@]12CC[C@H]3[C@@H](CC[C@]4(O)C[C@@H](O)CC[C@]34/C=N/O)[C@@]1(O)CC[C@@H]2C1=COC(=O)C1
0.403 µM

Next up: COc1ccc(-n2c(=O)n(C)c(=O)n2-c2ccc(OC)cc2)cc1
> 100 µM

Next up: CC1=C2C(=CC(C)(C)C2O)C(=O)C(C)(O)C12CC2 (centres undefined)
0.175 µM

Next up: C=C1C(=O)OC2C1C(OC(=O)/C(C)=C/C)CC(O)(CCl)C1C(O)C3OC3(C)C21O (centres undefined)
> 50 µM

Next up: CC[C@H](CO)Nc1nc(NCc2ccccc2)n2ncc(C(C)C)c2n1
40.2 µM

Next up: O=c1ccn(CC2(CO)CC(Cc3ccccc3)C2)c(=O)[nH]1 (centres undefined)
> 100 µM
